Attribution: PubChem BioAssay AID2060888

Entries and their viability, T/C values follow.
# System: 695427-040-R-J1-PDC complex spheroid viability;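 note: viability read after seven days of drug exposure; 100% = DMSO vehicle control viability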
# assayDetails: Anticancer human tumor 695427-040-R-J1-PDC patient-derived colon adenocarcinoma cell line growth inhibition [RAS]
# protocolConditions: second compound 1 µM; first compound 0.0316 µM; hits give low values
Hi! Could you send only the number? It should be in %, unit omitted.

These recorded examples may help you get a feel for the data.
- compound: "CC(Nc1ccc2c(c1)OCCn1cc(N3C(=O)OCC3C(F)F)nc1-2)C(N)=O (configuration not stated) + C=CC(=O)N1CCN(c2nc(OCC3CCCN3C)nc3c(F)c(-c4nc(N)cc(C)c4C(F)(F)F)c(Cl)cc23)C(C)C1"
  resultValue: 85.6
- compound: "O=C(c1ccc(F)c(F)c1Nc1ccc(I)cc1F)N1CC(O)([C@@H]2CCCCN2)C1 + C#Cc1c(F)ccc2cc(O)cc(-c3ncc4c(N5CC6CCC(C5)N6)nc(OCC56CCCN5CC(F)C6)nc4c3F)c12"
  resultValue: 47
- compound: "CC(C)n1nc(-c2ccc3oc(N)nc3c2)c2c(N)ncnc21 + C#Cc1c(F)ccc2cc(O)cc(-c3ncc4c(N5CC6CCC(C5)N6)nc(OCC56CCCN5CC(F)C6)nc4c3F)c12"
  resultValue: 47.8

In: Look up viability, T/C: CC(Nc1ccc2c(c1)OCCn1cc(N3C(=O)OCC3C(F)F)nc1-2)C(N)=O (configuration not stated) + C#Cc1c(F)ccc2cc(O)cc(-c3ncc4c(N5CC6CCC(C5)N6)nc(OCC56CCCN5CC(F)C6)nc4c3F)c12
Out: 63.1

In: Look up viability, T/C: CC(=O)OC12COC1CC(O)C1(C)C(=O)C(O)C3=C(C)C(OC(=O)C(O)C(NC(=O)OC(C)(C)C)c4ccccc4)CC(O)(C(OC(=O)c4ccccc4)C21)C3(C)C (configuration not stated) + C#Cc1c(F)ccc2cc(O)cc(-c3ncc4c(N5CC6CCC(C5)N6)nc(OCC56CCCN5CC(F)C6)nc4c3F)c12
Out: 59.5

In: Look up viability, T/C: NC1c2ccccc2OC12CCN(c1cnc3c(N4CCCc5ncccc54)n[nH]c3n1)CC2 (configuration not stated) + C#Cc1c(F)ccc2cc(O)cc(-c3ncc4c(N5CC6CCC(C5)N6)nc(OCC56CCCN5CC(F)C6)nc4c3F)c12
Out: 55.8

In: Look up viability, T/C: CCC(CC)c1cc(NC2CCC(N)C2)n2nccc2n1 (configuration not stated) + C=CC(=O)N1CCN(c2nc(OCC3CCCN3C)nc3c(F)c(-c4nc(N)cc(C)c4C(F)(F)F)c(Cl)cc23)C(C)C1
Out: 89.9
